# Protocol Summary: concentrations of drug in plasma of noninfected mice (agar-diffusion assay)
# Type: in vivo
# Condition: mouse, plasma, 56 mg/kg; read-out: Peak concn. in plasma

Smiles	Cmax
Cn1c([N+](=O)[O-])cnc1-c1nnc(N)s1	6000 to 12000 ng/mL

###

# Tested on: Pasteurella multocida
# Protocol Summary: controlling a Pasteurella multocida infection in mice
# Type: in vivo, Pasteurella multocida (in Swiss Webster female mice)
# Condition: 336 h, 0.25 mg./mouse by gavage, two weeks post-infection, read-out: Survivors/Total (converted)
Property Measured: responders at 0.25 mg (%)

Smiles	Property Measured	Measured Number
Cn1c([N+](=O)[O-])cnc1-c1nnc(NC=O)s1	responders at 0.25 mg	80
Cn1c([N+](=O)[O-])cnc1-c1nnc(N2CCCCC2)s1	responders at 0.25 mg	50
CCCCCCNc1nnc(-c2ncc([N+](=O)[O-])n2C)s1	responders at 0.25 mg	20
CN(C)C=Nc1nnc(-c2ncc([N+](=O)[O-])n2C)s1	responders at 0.25 mg	80
Nc1nnc(-c2ncc([N+](=O)[O-])n2CCO)s1	responders at 0.25 mg	76.7
Cn1c([N+](=O)[O-])cnc1-c1nnc(N)o1	responders at 0.25 mg	10

###

# Tested on: Salmonella gallinarum
# Protocol Summary: controlling fowl typhoid in chicks, medicated feed
# Format: in vivo, Salmonella gallinarum (in sex-linked pullet chicks)
# Condition: 0.006% in feed; 10 chicks tested; 10 days
Reported Survivors by item:
Property Measured: Survivors

Smiles	Property Measured	Measured Number
Cn1c([N+](=O)[O-])cnc1-c1nnc(N)o1	Survivors	9
CN(C)c1nnc(-c2ncc([N+](=O)[O-])n2C)o1	Survivors	2
Cn1c([N+](=O)[O-])cnc1-c1nnc(NCO)s1	Survivors	2
CNc1nnc(-c2ncc([N+](=O)[O-])n2C)o1	Survivors	8
Nc1nnc(-c2ncc([N+](=O)[O-])n2Cc2ccccc2)o1	Survivors	1

###

# Protocol Summary: concentrations of drug in plasma of noninfected mice (agar-diffusion assay)
# Type: in vivo
# Condition: mouse, plasma, 0.2 mg/kg; read-out: Peak concn. in plasma

Smiles	Cmax
Cn1c([N+](=O)[O-])cnc1-c1nnc(N)s1	< 1000 ng/mL

###

# Protocol Summary: concentrations of drug in plasma of noninfected mice (agar-diffusion assay)
# Assay type: in vivo
# Condition: mouse, in vivo, 89 mg/kg; read-out: Peak concn. in plasma
Property Measured: Cmax

Smiles	Property Measured	Result
Cn1c([N+](=O)[O-])cnc1-c1nnc(N)s1	Cmax	14000 to 18000 ng/mL

###

# Tested on: Salmonella gallinarum
# Protocol Summary: controlling fowl typhoid in chicks, medicated feed
# Format: in vivo, Salmonella gallinarum (in sex-linked pullet chicks)
# Condition: 0.025% in feed; 10 chicks tested; 10 days

Smiles	Survivors
CCNc1nnc(-c2ncc([N+](=O)[O-])n2C)s1	3
Cn1c([N+](=O)[O-])cnc1-c1nnc(N)o1	10
CN(C)c1nnc(-c2ncc([N+](=O)[O-])n2C)o1	9
CCn1c([N+](=O)[O-])cnc1-c1nnc(N)s1	9
Cn1c([N+](=O)[O-])cnc1-c1nnc(N2CCNCC2)s1	1
CNc1nnc(-c2ncc([N+](=O)[O-])n2C)o1	10
CN(C)c1nnc(-c2ncc([N+](=O)[O-])n2CCO)o1	2
Nc1nnc(-c2ncc([N+](=O)[O-])n2CCO)s1	8
CC(=O)Nc1nnc(-c2ncc([N+](=O)[O-])n2C)o1	8
Cn1c([N+](=O)[O-])cnc1-c1nnc(NCO)s1	2
Nc1nnc(-c2ncc([N+](=O)[O-])n2Cc2ccccc2)s1	4
Nc1nnc(-c2ncc([N+](=O)[O-])n2Cc2ccccc2)o1	1
Cn1c([N+](=O)[O-])cnc1-c1nnc(N2CCN(CCO)CC2)s1	3
